Attribute: binding signal
molecular target: POU1 (OCT1 POU domain) (human, UniProt P14859 260-458); assay: EMSA-SELEX-seq; no BOB1; 20 mM Tris-HCl pH 7.6, 140 mM NaCl, 10% glycerol, 0.5 mM EDTA, 0.05% Triton X-100, 0.1 mg/mL BSA, 0.1 mg/mL poly(dI-dC), 5 mM DTT, room temperature, 20 min; high values mean tight binding; conditions: protein: recombinant; dsDNA, one strand shown
Sequence (P14859 260-458): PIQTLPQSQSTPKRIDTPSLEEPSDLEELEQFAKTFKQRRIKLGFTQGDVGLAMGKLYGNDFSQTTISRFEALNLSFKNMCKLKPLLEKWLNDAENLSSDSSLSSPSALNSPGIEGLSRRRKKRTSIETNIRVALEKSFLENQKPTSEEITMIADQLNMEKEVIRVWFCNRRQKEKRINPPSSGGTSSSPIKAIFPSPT

residue_codes=ATTTGAAA observed_value="0.142 % of ANNNNAAN 8-mers"
residue_codes=ATCTAAAA observed_value="0.0564 % of ANNNNAAN 8-mers"
residue_codes=AAACTAAC observed_value="0.0256 % of ANNNNAAN 8-mers"
residue_codes=AGTTTAAG observed_value="0.05 % of ANNNNAAN 8-mers"
residue_codes=ACTCAAAA observed_value="0.0427 % of ANNNNAAN 8-mers"

*Q* Form: Entry = "AGACCAAT" | System = POU1 (OCT1 POU domain) (human, UniProt P14859 260-458) | binding signal = ____
*A* 0.0275 % of ANNNNAAN 8-mers

*Q* Record lookup: for POU1 (OCT1 POU domain) (human, UniProt P14859 260-458), what binding signal belongs to "ATCGTAAA" ?
*A* 0.0553 % of ANNNNAAN 8-mers

*Q* Item: "ATACAAAT" Test system: POU1 (OCT1 POU domain) (human, UniProt P14859 260-458) Read-out: binding signal Value: ?
*A* 0.318 % of ANNNNAAN 8-mers

###

Biological target: POU2 (OCT2 POU domain);BOB1 (OBF1, OCA-B) (human;human, UniProt P09086;Q16633 175-386;1-256, |)
Sequence 1: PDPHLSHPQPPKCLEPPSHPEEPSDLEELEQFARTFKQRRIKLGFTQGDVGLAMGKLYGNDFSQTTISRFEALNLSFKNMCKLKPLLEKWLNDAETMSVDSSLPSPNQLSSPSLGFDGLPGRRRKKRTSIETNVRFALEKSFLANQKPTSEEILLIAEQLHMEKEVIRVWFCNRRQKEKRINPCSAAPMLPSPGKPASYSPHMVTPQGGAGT
Sequence 2: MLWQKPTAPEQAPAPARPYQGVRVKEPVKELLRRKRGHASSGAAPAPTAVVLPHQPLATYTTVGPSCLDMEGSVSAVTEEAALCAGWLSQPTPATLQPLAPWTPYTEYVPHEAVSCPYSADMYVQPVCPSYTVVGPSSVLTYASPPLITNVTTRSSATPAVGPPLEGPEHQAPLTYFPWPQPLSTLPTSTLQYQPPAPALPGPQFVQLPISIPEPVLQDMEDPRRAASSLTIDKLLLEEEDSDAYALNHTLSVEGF
Test: EMSA-SELEX-seq; with BOB1 (ternary complex band); 20 mM Tris-HCl pH 7.6, 140 mM NaCl, 10% glycerol, 0.5 mM EDTA, 0.05% Triton X-100, 0.1 mg/mL BSA, 0.1 mg/mL poly(dI-dC), 5 mM DTT, room temperature, 20 min; high values mean tight binding
Conditions: protein: recombinant;recombinant; copies: 1;1; dsDNA, one strand shown
OBSERVATION TYPE: binding signal

Observe how each entry below is paired with its result.
residue_codes=ATTGAAAT observed_value="0.137 % of ANNNNAAN 8-mers"
residue_codes=ACGATAAA observed_value="0.0487 % of ANNNNAAN 8-mers"
residue_codes=AGCAGAAC observed_value="0.014 % of ANNNNAAN 8-mers"

*Q* I would be grateful if you could share the reported binding signal for "AGTTAAAC" .
*A* 0.0553 % of ANNNNAAN 8-mers

*Q* Could you share which binding signal value was measured for "ACTGAAAA" ?
*A* 0.0363 % of ANNNNAAN 8-mers

*Q* Which binding signal is listed for "ATGTGAAC" ?
*A* 0.0388 % of ANNNNAAN 8-mers

###

Target: POU2 (OCT2 POU domain);BOB1 (OBF1, OCA-B) (human;human, UniProt P09086;Q16633 175-386;1-256, |)
Sequence 1: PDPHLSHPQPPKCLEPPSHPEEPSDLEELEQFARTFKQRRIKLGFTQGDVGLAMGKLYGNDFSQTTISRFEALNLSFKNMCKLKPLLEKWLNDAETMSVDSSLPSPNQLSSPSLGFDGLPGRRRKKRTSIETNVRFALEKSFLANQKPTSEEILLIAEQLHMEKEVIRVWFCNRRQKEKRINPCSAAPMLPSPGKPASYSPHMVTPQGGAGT
Sequence 2: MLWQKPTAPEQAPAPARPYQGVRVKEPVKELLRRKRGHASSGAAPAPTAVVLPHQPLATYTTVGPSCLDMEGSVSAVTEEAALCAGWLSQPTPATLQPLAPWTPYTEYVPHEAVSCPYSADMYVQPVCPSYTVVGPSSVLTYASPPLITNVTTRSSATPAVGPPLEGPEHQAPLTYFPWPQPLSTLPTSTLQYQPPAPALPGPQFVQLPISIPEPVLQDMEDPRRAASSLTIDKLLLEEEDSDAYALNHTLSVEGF
Assay: EMSA-SELEX-seq; with BOB1 (ternary complex band); 20 mM Tris-HCl pH 7.6, 140 mM NaCl, 10% glycerol, 0.5 mM EDTA, 0.05% Triton X-100, 0.1 mg/mL BSA, 0.1 mg/mL poly(dI-dC), 5 mM DTT, room temperature, 20 min; high values mean tight binding
Conditions: protein: recombinant;recombinant; copies: 1;1; dsDNA, one strand shown
OBSERVATION TYPE: binding signal

Example sequences with recorded binding signal:
residue_codes=ATCATAAC observed_value="0.0322 % of ANNNNAAN 8-mers"
residue_codes=AGGAAAAG observed_value="0.0702 % of ANNNNAAN 8-mers"

Could you now consider this next sequence?
*Q* Which binding signal value belongs to "ACCATAAT" ?
*A* 0.0495 % of ANNNNAAN 8-mers

###

biological target: POU1 (OCT1 POU domain);BOB1 (OBF1, OCA-B) (human;human, UniProt P14859;Q16633 260-458;1-256, |); experiment: EMSA-SELEX-seq; with BOB1 (ternary complex band); 20 mM Tris-HCl pH 7.6, 140 mM NaCl, 10% glycerol, 0.5 mM EDTA, 0.05% Triton X-100, 0.1 mg/mL BSA, 0.1 mg/mL poly(dI-dC), 5 mM DTT, room temperature, 20 min; high values mean tight binding; conditions: protein: recombinant;recombinant; copies: 1;1; dsDNA, one strand shown
Sequence (P14859 260-458, one chain of several): as the sequence (P14859 260-458) above
OBSERVATION TYPE: binding signal

residue_codes=ATGTCAAT observation_type="binding signal" observed_value="0.0722 % of ANNNNAAN 8-mers"
residue_codes=AGATTAAC observation_type="binding signal" observed_value="0.0414 % of ANNNNAAN 8-mers"
residue_codes=AACCCAAA observation_type="binding signal" observed_value="0.0277 % of ANNNNAAN 8-mers"
residue_codes=ACTTTAAC observation_type="binding signal" observed_value="0.0304 % of ANNNNAAN 8-mers"

*Q* Value lookup for binding signal; key = "AGTGGAAT"
*A* 0.0847 % of ANNNNAAN 8-mers

*Q* Entry under review: "ACTCCAAA" . Reported binding signal?
*A* 0.0277 % of ANNNNAAN 8-mers

*Q* Entry "ACCTGAAT" : reported binding signal = ?
*A* 0.0359 % of ANNNNAAN 8-mers

*Q* Quick one: binding signal for "ACAGAAAA" ?
*A* 0.0472 % of ANNNNAAN 8-mers

*Q* What value of binding signal has been recorded for this entry: "ACTCGAAA"
*A* 0.0293 % of ANNNNAAN 8-mers

###

biological target: POU1 (OCT1 POU domain);BOB1 (OBF1, OCA-B) (human;human, UniProt P14859;Q16633 260-458;1-256, |); experiment: EMSA-SELEX-seq; with BOB1 (ternary complex band); 20 mM Tris-HCl pH 7.6, 140 mM NaCl, 10% glycerol, 0.5 mM EDTA, 0.05% Triton X-100, 0.1 mg/mL BSA, 0.1 mg/mL poly(dI-dC), 5 mM DTT, room temperature, 20 min; high values mean tight binding; details: protein: recombinant;recombinant; copies: 1;1; dsDNA, one strand shown
OBSERVATION TYPE: binding signal

Answered cases to consult:
residue_codes=ATCCAAAG observed_value="0.0566 % of ANNNNAAN 8-mers"
residue_codes=AAGGAAAA observed_value="0.17 % of ANNNNAAN 8-mers"

*Q* Can you look up the measured binding signal of "ATGATAAC" for me?
*A* 0.0332 % of ANNNNAAN 8-mers

*Q* Any idea what binding signal was measured for "ACTGTAAC" ?
*A* 0.0203 % of ANNNNAAN 8-mers

*Q* Name the reported binding signal value associated with the sequence "ATAAGAAA"
*A* 0.118 % of ANNNNAAN 8-mers

*Q* Form field: reported binding signal of "ACACGAAT"
*A* 0.0379 % of ANNNNAAN 8-mers

*Q* For "ACAAGAAT" , what is its reported binding signal?
*A* 0.0437 % of ANNNNAAN 8-mers

*Q* If you can, please state the reported binding signal value of "ATACTAAC" .
*A* 0.0304 % of ANNNNAAN 8-mers

*Q* Give the measured binding signal of "ATGAGAAT" .
*A* 0.0784 % of ANNNNAAN 8-mers
